Assignment: determine reported fraction unbound for the given molecules.
- Assay summary: Serum protein binding
Numbered stars: 1 amine (or outer) side, 2 acyl side, 3 side chain; on linkers, the order of the positions; unused ones are H or OH. Bridge positions count the residues as written; N and C are the ends. Square brackets hold non-standard residues; d marks the D form. Peptide text beside a SMILES is read from it. * marks the point of attachment. Octanoyl(6-Me) = CCC(C)CCCCC(=O)*; NH(2-ClPh) = Clc1ccccc1N*; Dab = NCC[CH](N)C(=O)O; CO = O=C([*:1])[*:2]

Using the record for CCC(C)CCCCC(=O)NC(CCN)C(=O)NC(C(=O)NC(CCN)C(=O)NC1CCNC(=O)C(C(C)O)NC(=O)C(CCN)NC(=O)C(CCN)NC(=O)C(CC(C)C)NC(=O)C(Cc2ccccc2)NC(=O)C(CCN)NC1=O)C(C)O (centres unmarked) [Polymyxin B, polymyxin B, reference compound] ({Octanoyl(6-Me)}-[Dab]T[Dab][Dab][Dab]FL[Dab][Dab]T; lactam 4-C; configuration not given here) , report its fraction unbound. ~0.44

Now the molecule CC(C)C[C@@H]1NC(=O)[C@@H](Cc2ccccc2)NC(=O)[C@H](CCN)NC(=O)[C@@H](NC(=O)[C@H](CCN)NC(=O)[C@@H](NC(=O)[C@H](CCN)NC(=O)Nc2ccccc2Cl)[C@@H](C)O)CCNC(=O)[C@H]([C@@H](C)O)NC(=O)[C@H](CCN)NC(=O)[C@H](CCN)NC1=O [Compound 5] ({NH(2-ClPh)-CO}-[Dab]T[Dab][Dab][Dab][dF]L[Dab][Dab]T; lactam 4-C) ~0.7

Source of measurements: patent US8343912B2
